Entry source: paper PMC6615629

- Tested Target: T1, Ssa2 (yeast (S. cerevisiae), UniProt P10592 1-639)
- T1 construct: Ssa2, yeast cytosolic Hsp70; non-tagged; also called Hsp70; source: E. coli Rosetta 2(DE3), purified as described [51]
- T1 sequence (P10592 whole entry): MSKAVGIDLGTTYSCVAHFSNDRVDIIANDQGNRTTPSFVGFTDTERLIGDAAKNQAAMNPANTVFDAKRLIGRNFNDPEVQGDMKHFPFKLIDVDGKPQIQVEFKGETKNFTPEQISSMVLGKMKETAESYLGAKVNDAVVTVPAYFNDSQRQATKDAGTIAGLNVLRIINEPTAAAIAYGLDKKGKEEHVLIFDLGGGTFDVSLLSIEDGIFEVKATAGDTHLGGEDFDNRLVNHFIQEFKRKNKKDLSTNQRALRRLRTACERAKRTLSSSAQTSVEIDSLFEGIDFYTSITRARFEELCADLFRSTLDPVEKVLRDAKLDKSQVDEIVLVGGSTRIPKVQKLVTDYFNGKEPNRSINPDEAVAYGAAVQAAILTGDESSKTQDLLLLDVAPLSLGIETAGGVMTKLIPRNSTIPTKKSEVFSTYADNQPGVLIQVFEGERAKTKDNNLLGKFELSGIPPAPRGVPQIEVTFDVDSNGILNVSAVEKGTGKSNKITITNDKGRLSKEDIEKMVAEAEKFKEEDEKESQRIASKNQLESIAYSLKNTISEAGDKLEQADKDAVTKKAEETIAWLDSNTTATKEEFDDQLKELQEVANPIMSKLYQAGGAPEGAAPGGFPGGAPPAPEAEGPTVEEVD
- Measurement Notes: pull-down; His6-Fbp1 (wild type or mutant) pulled down on Talon metal affinity resin; reactions with two or all three proteins; 6 μg each of His6-Fbp1 (1.6 μM), Hsp70 (0.9 μM) and GST-Fes1 (1.09 μM), with or without ATP, ADP or AMP (2.5 mM); 50 mM Tris-HCl pH 7.5, 150 mM NaCl, 2% glycerol, 5 mM MgCl2; 30 min at 4°C; washed with 5 mM imidazole, eluted with 250 mM imidazole; stained SDS-PAGE gels, bands quantified …
- Experimental Setup: both partners purified
Endpoint: binding result

>>> recorded_value("His6-Fbp1ΔP2 (enzyme, yeast (S. cerevisiae), UniProt P09201 1-348, looked up, Fbp1, yeast gluconeogenic enzyme, proline 2 deleted; the initiator methionine is counted as residue 1; also called Fbp1P2Δ; source: E. coli expression, purified; not shown: His6, N-terminal, kept) MTLVNGPRRDSTEGFDTDIITLPRFIIEHQKQFKNATGDFTLVLNALQFAFKFVSHTIRRAELVNLVGLAGASNFTGDQQKKLDVLGDEIFINAMRASGIIKVLVSEEQEDLIVFPTNTGSYAVCCDPIDGSSNLDAGVSVGTIASIFRLLPDSSGTINDVLRCGKEMVAACYAMYGSSTHLVLTLGDGVDGFTLDTNLGEFILTHPNLRIPPQKAIYSINEGNTLYWNETIRTFIEKVKQPQADNNNKPFSARYVGSMVADVHRTFLYGGLFAYPCDKKSPNGKLRLLYEAFPMAFLMEQAGGKAVNDRGERILDLVPSHIHDKSSIWLGSSGEIDKFLDHIGKSQ")
"binds"
